TARGET_UNDER_TEST: Serine/threonine-protein kinase pim-1 (Homo sapiens)
RECORDED_CONDITIONS: at 1 µM
Each entry gets not fulfilled if its residual activity stays under 90%, and fulfilled if its residual activity is 90% or above.

SMILES_REPR	ASSIGNED_CLASS
CC(C)[C@H](CO)Nc1nc(Nc2cccc(Cl)c2)c2ncn(C(C)C)c2n1	fulfilled
COC(=O)[C@@]1(O)C[C@H]2O[C@]1(C)n1c3ccccc3c3c4c(c5c6ccccc6n2c5c31)C(=O)NC4	not fulfilled
COc1cc2ncnc(Nc3ccc(OCc4ccccc4)cc3)c2cc1OC	fulfilled
COc1ccc2c(c[n+](C)c3c4cc5c(cc4ccc23)OCO5)c1OC	fulfilled
O=C1Nc2ccc3ncsc3c2/C1=C/c1c[nH]cn1	not fulfilled
O=[N+]([O-])/C=C/c1ccc2c(c1)OCO2	not fulfilled

----------
TARGET_UNDER_TEST: Proto-oncogene tyrosine-protein kinase Src (Homo sapiens) (UniProt P12931)
Sequence (P12931 2-536 limits assumed): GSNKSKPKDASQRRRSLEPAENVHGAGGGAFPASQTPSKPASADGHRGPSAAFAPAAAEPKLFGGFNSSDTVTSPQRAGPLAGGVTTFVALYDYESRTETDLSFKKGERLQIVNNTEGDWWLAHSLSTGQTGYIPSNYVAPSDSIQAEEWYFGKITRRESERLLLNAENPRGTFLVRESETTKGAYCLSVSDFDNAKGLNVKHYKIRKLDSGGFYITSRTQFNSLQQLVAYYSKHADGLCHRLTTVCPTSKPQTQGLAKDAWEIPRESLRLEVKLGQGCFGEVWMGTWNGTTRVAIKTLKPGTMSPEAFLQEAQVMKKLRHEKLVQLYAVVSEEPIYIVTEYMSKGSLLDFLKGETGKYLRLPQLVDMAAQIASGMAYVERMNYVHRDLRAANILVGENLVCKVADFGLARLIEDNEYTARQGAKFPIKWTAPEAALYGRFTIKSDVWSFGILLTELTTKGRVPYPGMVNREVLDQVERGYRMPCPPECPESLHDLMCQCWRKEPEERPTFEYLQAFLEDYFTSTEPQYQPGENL
RECORDED_CONDITIONS: at 10 µM

MOLECULE	residual activity
O=[N+]([O-])/C=C/c1ccc2c(c1)OCO2	106%
COc1cc2ncnc(Nc3ccc(OCc4ccccc4)cc3)c2cc1OC	77%
C[S+]([O-])c1ccc(-c2nc(-c3ccc(F)cc3)c(-c3ccncc3)[nH]2)cc1 (configuration not stated)	65%
CC(C)(C)c1cc(C=C(C#N)C#N)cc(Br)c1O	75%
c1cc(-c2cnn3cc(-c4ccc(OCCN5CCCCC5)cc4)cnc23)ccn1	9%
O=C1Nc2ccc3ncsc3c2/C1=C/c1c[nH]cn1	40%
O=C1c2ccccc2-c2nc3nnnn3nc21	112%

----------
As shown below, each of these compounds has a reported residual activity value.
TARGET_UNDER_TEST: Serine/threonine-protein kinase 3 (Homo sapiens)
Sequence (whole entry): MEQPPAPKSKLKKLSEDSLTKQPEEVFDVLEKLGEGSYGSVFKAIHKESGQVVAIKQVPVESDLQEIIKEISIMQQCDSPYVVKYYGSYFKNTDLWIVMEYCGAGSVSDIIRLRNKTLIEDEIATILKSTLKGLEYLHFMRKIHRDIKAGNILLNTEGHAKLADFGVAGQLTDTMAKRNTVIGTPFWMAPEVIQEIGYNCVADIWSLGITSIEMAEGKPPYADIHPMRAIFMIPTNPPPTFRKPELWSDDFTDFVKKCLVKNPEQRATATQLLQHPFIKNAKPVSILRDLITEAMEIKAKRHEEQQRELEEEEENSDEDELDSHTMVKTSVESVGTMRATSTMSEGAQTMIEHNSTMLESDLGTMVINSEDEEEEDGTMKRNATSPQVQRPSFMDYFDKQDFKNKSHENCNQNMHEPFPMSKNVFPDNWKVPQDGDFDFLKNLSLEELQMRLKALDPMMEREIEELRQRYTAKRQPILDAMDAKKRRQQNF
RECORDED_CONDITIONS: at 1 µM

SMILES_REPR	residual activity (%)
O=c1[nH]c2ccccc2n1C1CCN(Cc2ccc(-c3nc4cc5[nH]cnc5cc4nc3-c3ccccc3)cc2)CC1	106
O=[N+]([O-])/C=C/c1ccc2c(c1)OCO2	104
O=C1NC(=O)c2c1c1c3ccccc3n3c1c1c2c2ccccc2n1C1CCC3O1	10
COc1cc2ncnc(Nc3ccc(OCc4ccccc4)cc3)c2cc1OC	111
COc1cc(OC)c(/C=C2\C(=O)Nc3ccccc32)c(OC)c1	102

----------
TARGET_UNDER_TEST: Insulin-like growth factor 1 receptor (Homo sapiens)
RECORDED_CONDITIONS: at 1 µM

SMILES_REPR	TARGET_UNDER_TEST	residual activity [%]
CCn1cnc2c(Nc3cccc(Cl)c3)nc(N[C@@H]3CCCC[C@@H]3N)nc21	Insulin-like growth factor 1 receptor (Homo sapiens)	71
CC(C)[C@H](CO)Nc1nc(Nc2cccc(Cl)c2)c2ncn(C(C)C)c2n1	Insulin-like growth factor 1 receptor (Homo sapiens)	48
COc1ccc2c(c[n+](C)c3c4cc5c(cc4ccc23)OCO5)c1OC	Insulin-like growth factor 1 receptor (Homo sapiens)	93
O=C1Nc2ccc3ncsc3c2/C1=C/c1c[nH]cn1	Insulin-like growth factor 1 receptor (Homo sapiens)	94
COc1cc(OC)c(/C=C2\C(=O)Nc3ccccc32)c(OC)c1	Insulin-like growth factor 1 receptor (Homo sapiens)	95
O=c1[nH]c2ccccc2n1C1CCN(Cc2ccc(-c3nc4cc5[nH]cnc5cc4nc3-c3ccccc3)cc2)CC1	Insulin-like growth factor 1 receptor (Homo sapiens)	98
COc1cc2ncnc(Nc3ccc(OCc4ccccc4)cc3)c2cc1OC	Insulin-like growth factor 1 receptor (Homo sapiens)	108

----------
TARGET_UNDER_TEST: MAP kinase-interacting serine/threonine-protein kinase 2 (Homo sapiens) (UniProt Q9HBH9)
Sequence (Q9HBH9 whole entry, looked up): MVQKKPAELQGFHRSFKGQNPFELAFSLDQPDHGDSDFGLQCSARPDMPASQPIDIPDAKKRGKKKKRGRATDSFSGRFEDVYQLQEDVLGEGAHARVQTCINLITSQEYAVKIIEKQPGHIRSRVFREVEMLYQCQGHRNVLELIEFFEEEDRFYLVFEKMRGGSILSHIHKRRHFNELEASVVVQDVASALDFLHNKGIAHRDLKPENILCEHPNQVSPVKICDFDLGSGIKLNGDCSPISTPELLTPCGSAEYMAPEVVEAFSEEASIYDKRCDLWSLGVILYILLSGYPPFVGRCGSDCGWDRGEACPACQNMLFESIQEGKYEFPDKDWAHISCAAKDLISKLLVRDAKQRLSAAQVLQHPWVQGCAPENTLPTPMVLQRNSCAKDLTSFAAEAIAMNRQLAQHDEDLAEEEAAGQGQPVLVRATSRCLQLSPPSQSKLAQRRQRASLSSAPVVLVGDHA
RECORDED_CONDITIONS: at 10 µM

MOLECULE	READOUT_UNITS	residual activity
CCc1nc(-c2ccc(OC)cc2)[nH]c1-c1ccncc1	%	59
CCn1cnc2c(Nc3cccc(Cl)c3)nc(N[C@@H]3CCCC[C@@H]3N)nc21	%	70
C[S+]([O-])c1ccc(-c2nc(-c3ccc(F)cc3)c(-c3ccncc3)[nH]2)cc1 (configuration not stated)	%	87
COc1cc2ncnc(Nc3ccc(OCc4ccccc4)cc3)c2cc1OC	%	68
c1cc(-c2cnn3cc(-c4ccc(OCCN5CCCCC5)cc4)cnc23)ccn1	%	24
COc1cc(OC)c(/C=C2\C(=O)Nc3ccccc32)c(OC)c1	%	96
O=C1c2ccccc2-c2nc3nnnn3nc21	%	75

----------
TARGET_UNDER_TEST: Serine/threonine-protein kinase 33 (Homo sapiens) (UniProt Q9BYT3)
Sequence (Q9BYT3 whole entry, looked up): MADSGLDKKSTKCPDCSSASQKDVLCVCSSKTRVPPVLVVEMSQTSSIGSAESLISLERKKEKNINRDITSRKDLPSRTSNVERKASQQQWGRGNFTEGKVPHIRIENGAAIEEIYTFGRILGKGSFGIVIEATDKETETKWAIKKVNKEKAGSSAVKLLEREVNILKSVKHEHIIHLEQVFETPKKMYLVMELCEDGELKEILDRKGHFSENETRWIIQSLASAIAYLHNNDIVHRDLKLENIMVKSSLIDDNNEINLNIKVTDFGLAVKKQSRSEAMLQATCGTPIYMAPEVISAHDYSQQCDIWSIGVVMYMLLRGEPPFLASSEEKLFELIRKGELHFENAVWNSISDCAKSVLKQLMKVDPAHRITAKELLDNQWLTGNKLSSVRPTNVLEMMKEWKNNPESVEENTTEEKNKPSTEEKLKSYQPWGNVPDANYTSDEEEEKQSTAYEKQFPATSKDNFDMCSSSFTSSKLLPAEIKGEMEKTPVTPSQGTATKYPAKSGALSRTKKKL
RECORDED_CONDITIONS: at 1 µM
MEASURE: residual activity (%)

COMPOUND	RECORDED_NUMBER
CC(C)(C)c1cc(C=C(C#N)C#N)cc(Br)c1O	110
CCn1cnc2c(Nc3cccc(Cl)c3)nc(N[C@@H]3CCCC[C@@H]3N)nc21	87
CCc1nc(-c2ccc(OC)cc2)[nH]c1-c1ccncc1	105
COc1ccc2c(c[n+](C)c3c4cc5c(cc4ccc23)OCO5)c1OC	97
CC(C)[C@H](CO)Nc1nc(Nc2cccc(Cl)c2)c2ncn(C(C)C)c2n1	89
C[S+]([O-])c1ccc(-c2nc(-c3ccc(F)cc3)c(-c3ccncc3)[nH]2)cc1 (configuration not stated)	106
O=C1c2ccccc2-c2nc3nnnn3nc21	103

----------
TARGET_UNDER_TEST: G protein-coupled receptor kinase 5 (Homo sapiens)
RECORDED_CONDITIONS: at 1 µM

SMILES_REPR	residual activity, %
CN(C)CCCn1cc(C2=C(c3c[nH]c4ccccc34)C(=O)NC2=O)c2ccccc21	61
COc1cc2ncnc(Nc3ccc(OCc4ccccc4)cc3)c2cc1OC	101
COc1ccc(CNc2nc(N(CCO)CCO)nc3c2ncn3C(C)C)cc1	89
O=c1cc(-c2cccc3c2Sc2ccccc2S3)oc(N2CCOCC2)c1	99
O=c1cc(N2CCOCC2)oc2c1ccc1ccccc12	103

----------
TARGET_UNDER_TEST: Serine/threonine-protein kinase Sgk2 (Homo sapiens) (UniProt Q9HBY8)
Sequence (Q9HBY8 whole entry): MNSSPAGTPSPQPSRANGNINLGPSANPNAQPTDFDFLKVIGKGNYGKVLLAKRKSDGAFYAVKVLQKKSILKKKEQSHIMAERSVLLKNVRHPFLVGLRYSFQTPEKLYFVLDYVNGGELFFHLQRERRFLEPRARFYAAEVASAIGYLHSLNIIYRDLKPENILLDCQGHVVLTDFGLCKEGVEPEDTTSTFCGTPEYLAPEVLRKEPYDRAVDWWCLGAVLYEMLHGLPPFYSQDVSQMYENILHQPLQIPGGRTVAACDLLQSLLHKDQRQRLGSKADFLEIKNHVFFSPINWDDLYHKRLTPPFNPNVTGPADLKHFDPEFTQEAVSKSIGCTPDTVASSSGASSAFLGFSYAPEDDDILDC
RECORDED_CONDITIONS: at 10 µM
MEASURE: residual activity (%)

SMILES_REPR	MEASURE	RECORDED_NUMBER
COc1cc2ncnc(Nc3ccc(OCc4ccccc4)cc3)c2cc1OC	residual activity	96
COc1ccc2c(c1)/C(=C/c1cnc[nH]1)C(=O)N2	residual activity	32
O=C1NC(=O)c2c1c1c3ccccc3n3c1c1c2c2ccccc2n1C1CCC3O1	residual activity	61

----------
As shown below, each of these compounds has a reported residual activity value.
TARGET_UNDER_TEST: Muscle, skeletal receptor tyrosine-protein kinase (Homo sapiens) (UniProt O15146)
Sequence (O15146 whole entry): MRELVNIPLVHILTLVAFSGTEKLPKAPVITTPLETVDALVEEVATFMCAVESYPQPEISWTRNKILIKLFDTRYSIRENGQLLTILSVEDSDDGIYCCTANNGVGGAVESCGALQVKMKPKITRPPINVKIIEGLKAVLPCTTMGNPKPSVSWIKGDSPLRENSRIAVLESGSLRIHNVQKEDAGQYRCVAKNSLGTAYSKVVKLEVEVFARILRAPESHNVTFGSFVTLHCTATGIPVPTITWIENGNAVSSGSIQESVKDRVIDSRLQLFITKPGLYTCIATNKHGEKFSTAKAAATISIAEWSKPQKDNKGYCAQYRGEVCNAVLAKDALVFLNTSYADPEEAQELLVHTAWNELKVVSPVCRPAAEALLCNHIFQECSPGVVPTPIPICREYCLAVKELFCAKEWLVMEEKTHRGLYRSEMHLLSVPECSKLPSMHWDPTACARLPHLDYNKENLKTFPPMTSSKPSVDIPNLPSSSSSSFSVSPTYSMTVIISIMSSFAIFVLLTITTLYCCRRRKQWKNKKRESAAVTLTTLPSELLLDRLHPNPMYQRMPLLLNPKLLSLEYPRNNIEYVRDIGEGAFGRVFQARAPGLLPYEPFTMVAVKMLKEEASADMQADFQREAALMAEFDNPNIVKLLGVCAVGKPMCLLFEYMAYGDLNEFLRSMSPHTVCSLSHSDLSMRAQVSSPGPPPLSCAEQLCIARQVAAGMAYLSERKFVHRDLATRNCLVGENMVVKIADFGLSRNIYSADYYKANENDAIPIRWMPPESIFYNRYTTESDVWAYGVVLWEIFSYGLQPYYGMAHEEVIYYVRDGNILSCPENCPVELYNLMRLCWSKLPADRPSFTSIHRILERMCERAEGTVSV
RECORDED_CONDITIONS: at 10 µM
MEASURE: residual activity (%)

COMPOUND	RECORDED_NUMBER
CC(C)(C)c1cc(C=C(C#N)C#N)cc(Br)c1O	72
COc1ccc2c(c[n+](C)c3c4cc5c(cc4ccc23)OCO5)c1OC	95
COc1cc(OC)c(/C=C2\C(=O)Nc3ccccc32)c(OC)c1	78
O=c1[nH]c2ccccc2n1C1CCN(Cc2ccc(-c3nc4cc5[nH]cnc5cc4nc3-c3ccccc3)cc2)CC1	84
COC(=O)[C@@]1(O)C[C@H]2O[C@]1(C)n1c3ccccc3c3c4c(c5c6ccccc6n2c5c31)C(=O)NC4	2
CCn1cnc2c(Nc3cccc(Cl)c3)nc(N[C@@H]3CCCC[C@@H]3N)nc21	13
C[S+]([O-])c1ccc(-c2nc(-c3ccc(F)cc3)c(-c3ccncc3)[nH]2)cc1 (centres undefined)	95
CC(C)[C@H](CO)Nc1nc(Nc2cccc(Cl)c2)c2ncn(C(C)C)c2n1	5
O=C1c2ccccc2-c2nc3nnnn3nc21	105

----------
TARGET_UNDER_TEST: Ephrin type-A receptor 7 (Homo sapiens)
RECORDED_CONDITIONS: at 1 µM
MEASURE: residual activity

SMILES_REPR	RESULT
O=c1[nH]c2ccccc2n1C1CCN(Cc2ccc(-c3nc4cc5[nH]cnc5cc4nc3-c3ccccc3)cc2)CC1	97%
O=C1NC(=O)c2c1c1c3ccccc3n3c1c1c2c2ccccc2n1C1CCC3O1	100%
CC(C)[C@H](CO)Nc1nc(Nc2cccc(Cl)c2)c2ncn(C(C)C)c2n1	76%
CC(C)(C)c1cc(C=C(C#N)C#N)cc(Br)c1O	109%
CCc1nc(-c2ccc(OC)cc2)[nH]c1-c1ccncc1	114%
